Target: T1, B-cat-Halo (UniProt P35222 1-781)
T1 sequence (looked up): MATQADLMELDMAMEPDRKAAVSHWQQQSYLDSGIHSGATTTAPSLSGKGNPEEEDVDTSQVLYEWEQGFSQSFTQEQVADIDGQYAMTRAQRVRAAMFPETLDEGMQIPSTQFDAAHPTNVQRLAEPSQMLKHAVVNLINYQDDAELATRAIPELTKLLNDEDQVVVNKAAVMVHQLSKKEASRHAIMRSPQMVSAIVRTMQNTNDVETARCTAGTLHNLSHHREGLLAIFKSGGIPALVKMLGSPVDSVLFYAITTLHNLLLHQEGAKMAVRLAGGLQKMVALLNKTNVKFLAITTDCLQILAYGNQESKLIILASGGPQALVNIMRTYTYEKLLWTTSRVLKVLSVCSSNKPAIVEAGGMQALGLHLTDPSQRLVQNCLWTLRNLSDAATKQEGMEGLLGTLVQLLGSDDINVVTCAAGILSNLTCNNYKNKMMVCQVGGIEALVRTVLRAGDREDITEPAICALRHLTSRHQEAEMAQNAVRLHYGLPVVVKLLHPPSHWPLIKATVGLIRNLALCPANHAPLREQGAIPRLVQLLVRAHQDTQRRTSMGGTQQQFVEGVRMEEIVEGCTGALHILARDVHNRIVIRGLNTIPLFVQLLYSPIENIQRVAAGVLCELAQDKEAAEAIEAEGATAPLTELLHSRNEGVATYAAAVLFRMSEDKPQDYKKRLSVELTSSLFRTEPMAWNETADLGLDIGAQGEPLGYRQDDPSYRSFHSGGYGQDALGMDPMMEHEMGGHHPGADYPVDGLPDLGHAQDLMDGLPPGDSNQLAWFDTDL
Assay: cell-based or functional assay
Starred links: 1 amine or outer side, 2 acyl side, 3 side chain; linkers in the order of their positions; H or OH if unused. Positions of bridges follow the written chain, without caps; N, C: chain ends. Non-standard residues stand in square brackets, D forms with d. Primed or numbered codes have the meaning given here. *: point of attachment. PyrS2″ = (S)-3-amino-1-((pent-4-en-1-yloxy)carbonyl)pyrrolidine-3-carboxylic acid (stapling residue), C=CCCCOC(=O)N1CC[C@@](N[*:1])(C(=O)[*:2])C1; TfeGA = (S)-2-amino-3-((carboxymethyl)(2,2,2-trifluoroethyl)amino)propanoic acid, O=C([C@H](CN(CC(=O)[*:3])CC(F)(F)F)N[*:1])[*:2]; PyrS2 = (S)-3-amino-1-((pent-4-en-1-yloxy)carbonyl)pyrrolidine-3-carboxylic acid, C=CCCCOC(=O)N1CC[C@@](N[*:1])(C(=O)[*:2])C1; B5(22) = 2-amino-2-(pent-4-en-1-yl)hept-6-enoic acid (two alkene side chains), C=CCCCC(CCCC=C)(N[*:1])C(=O)[*:2]; HypEs5 = (2R,4S)-4-(pent-4-enoyloxy)pyrrolidine-2-carboxylic acid, C=CCCC(=O)O[C@H]1C[C@H](C(=O)[*:2])N([*:1])C1; GAbu = (S)-2-amino-4-((carboxymethyl)amino)butanoic acid, O=C([C@H](CCNCC(=O)[*:3])N[*:1])[*:2]; B5(3) = 2,2-bis(4-pentenyl)glycine (stitching residue), C=CCCCC(CCCC=C)(N[*:1])C(=O)[*:2]; Benzoyl(2,3,4,5,6-F5) = O=C(c1c(F)c(F)c(F)c(F)c1F)*; Phe(3-COOH) = N[C@@H](Cc1cccc(C(=O)O)c1)C(=O)O; Phe(3-F) = N[C@@H](Cc1cccc(F)c1)C(=O)O; Phe(4-F) = N[C@@H](Cc1ccc(F)cc1)C(=O)O; Bta = N[C@@H](Cc1csc2ccccc12)C(=O)O; αAllylPro = C=CC[C@@]1(C(=O)O)CCCN1; tBuAla = CC(C)(C)C[C@H](N)C(=O)O; 3Thi = N[C@@H](Cc1ccsc1)C(=O)O
Each entry gets not fulfilled if its NanoBRET Abs IC50 stays under 6 µM, and fulfilled if its NanoBRET Abs IC50 is 6 µM or above.

Consider the following illustrative entries.
Ac-[αAllylPro]D[tBuAla][B5(3)]D[Phe(3-COOH)]AA[Phe(3-F)]L[PyrS2″][3Thi][Bta]A-NH2 (staple 1-4, 4-11) [I-2260]    not fulfilled
Ac-[αAllylPro]D[tBuAla][B5(22)]D[GAbu](Benzoyl(2,3,4,5,6-F5))AAFL[PyrS2][3Thi][Bta]Q-NH2 (staple 1-4, 4-11) [I-2252]    fulfilled

[Q] Dear colleague, could you confirm whether Ac-[αAllylPro]D[tBuAla][B5(3)]D[Phe(3-COOH)]AAFL[PyrS2″][Phe(4-F)][Bta]A-NH2 (staple 1-4, 4-11) [I-2263] has NanoBRET Abs IC50 at or above 6 µM?
[A] not fulfilled

[Q] Dear colleague, could you confirm whether Ac-[HypEs5]D[tBuAla][B5(3)]D[TfeGA]AAFL[PyrS2″][3Thi][Bta]Q-NH2 (staple 1-4, 4-11) [I-2264] has NanoBRET Abs IC50 at or above 6 µM?
[A] fulfilled
